run_description: A qHTS for Small Molecule Inhibitors of Shiga Toxin; further: 0% is about no effect
assay_context: Vero cells, Shiga toxin protein synthesis inhibition reporter; at 38.7 µM, active compounds read high
Among all 290,000 compounds or so, about 27,000 (9.3%) were called active. Many of the other results were omitted from the sample, so actives are more common in it than they were.
Entries and their inhibition
reported_metric: inhibition (%)

INSERT INTO assay_data (molecule, reported_metric, result) VALUES
  ('CCOc1ccc(OCCSc2nc3ccccc3n2CC(=O)O)cc1', 'inhibition', 1.74),
  ('Cc1c(C(=O)OC(C)C)sc(NC(=O)c2cccnc2)c1C#N', 'inhibition', 30.6),
  ('O=C(CNC(=O)c1cccnc1)N/N=C/c1cc(Br)c(O)c(Br)c1', 'inhibition', -3.98),
  ('COc1ccc(C(O)(C2CCCCC2)C(CN2CCCC2)c2ccccc2)cc1 (stereo not given)', 'inhibition', 0.707),
  ('O=C(O)c1ccccc1C(=O)Nc1ccccc1[N+](=O)[O-]', 'inhibition', 0.458);
